- targetUnderTest: T1, Human Nectin-4 expressed on cells (human, UniProt Q96NY8 32-510)
- T1 construct: Endogenous on HT-1376 cells; also called endogenous Nectin-4 on HT-1376 cells; cell surface Nectin-4
- T1 sequence: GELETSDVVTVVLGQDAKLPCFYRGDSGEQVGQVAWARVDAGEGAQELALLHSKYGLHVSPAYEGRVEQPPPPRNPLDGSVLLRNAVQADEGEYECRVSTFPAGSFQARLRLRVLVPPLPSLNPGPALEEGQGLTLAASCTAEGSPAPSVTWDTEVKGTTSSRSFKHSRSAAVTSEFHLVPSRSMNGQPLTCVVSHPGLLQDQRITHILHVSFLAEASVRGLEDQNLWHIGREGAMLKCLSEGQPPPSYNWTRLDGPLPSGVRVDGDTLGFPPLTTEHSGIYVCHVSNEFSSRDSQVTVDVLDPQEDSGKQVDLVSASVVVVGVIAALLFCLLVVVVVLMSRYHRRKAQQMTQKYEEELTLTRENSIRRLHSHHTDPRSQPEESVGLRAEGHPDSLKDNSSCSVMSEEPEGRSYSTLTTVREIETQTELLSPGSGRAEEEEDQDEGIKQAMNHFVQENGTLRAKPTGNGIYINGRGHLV
- testMethodNotes: radioligand binding, 177Lu-labelled compound, HT-1376 cells
Bridges are numbered along the chain shown (N, C = ends). Primed or numbered codes have the meaning given here. Where no end group is shown, it is not given here. The star is where a group is joined. DOTA = O=C(O)CN1CCN(CC(=O)O)CCN(CC(=O)*)CCN(CC(=O)O)CC1; PEG4″ = 4(ethylene glycol); PEG4′ = not defined here
endpointName: pKd
Quick note: pKd values are minus log10 of concentrations in mol/L.

Worked cases, answers included:
{DOTA-PEG4″}-CEYDEEFFTALKRLRGGDICYYIKKKFKKVPKLCIEEILDKLGC-NH2 (designed binder, disulfide 1-34, 20-44; also: 177Lu-labelled in radioligand assay) [C82] = 7.85
{DOTA-PEG4″}-CEYDEEFFTALKRLRGGDICYYIQAKFQYLPKLCIEEILDNLGCS (designed binder, disulfide 1-34, 20-44; also: 177Lu-labelled in the radioligand assay) [C117] = 8.58
{DOTA-PEG4″}-CEYDEEFFTALKRLRGGDICYYIKKKFDYLPKLCIEEILDNLGC-NH2 (designed binder, disulfide 1-34, 20-44; also: 177Lu-labelled in the radioligand assay) [C214] = 8.52
{DOTA-PEG4″}-CEYDEEFFTALKRLRGGDICYYIQASFQYLPGLCIEEILDNLGCS (designed binder, disulfide 1-34, 20-44; also: 177Lu-labelled in radioligand assay) [C109] = 8.06

Okay, now this binder:
Give pKd for {DOTA-PEG4′}-CEYDEEFFTALKRLRGGDICYYIKKKFKKVPKLCIEEILDKLGC-NH2 (designed binder, cysteine pairing not given here; also: 177Lu label on DOTA) [C215]
8.30
